Catalogue of inhibition at 10 µM values
Measured Target: CB1 (h) (Homo sapiens)
Sequence (P21554 whole entry): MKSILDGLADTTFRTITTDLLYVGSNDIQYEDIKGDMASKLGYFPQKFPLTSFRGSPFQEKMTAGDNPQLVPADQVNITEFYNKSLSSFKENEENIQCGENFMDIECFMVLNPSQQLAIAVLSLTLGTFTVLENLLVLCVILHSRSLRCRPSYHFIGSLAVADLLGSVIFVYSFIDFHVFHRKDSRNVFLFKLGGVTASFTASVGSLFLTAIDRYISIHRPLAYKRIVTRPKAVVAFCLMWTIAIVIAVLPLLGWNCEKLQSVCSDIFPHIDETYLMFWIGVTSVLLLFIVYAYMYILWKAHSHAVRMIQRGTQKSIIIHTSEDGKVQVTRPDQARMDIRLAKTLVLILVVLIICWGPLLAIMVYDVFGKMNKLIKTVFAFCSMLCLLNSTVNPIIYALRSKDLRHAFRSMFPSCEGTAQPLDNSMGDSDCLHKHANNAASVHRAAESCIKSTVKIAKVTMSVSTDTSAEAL
Assay Comment: CB1 (h) (agonist radioligand)
Condition Set: read-out: Inhibition CB1 (h) (agonist radioligand)
Test Readout: inhibition at 10 µM (%)

>  <Compound>
O=C(OC(C(F)(F)F)C(F)(F)F)N1CC2(CC(CC3=C4C=CC(c5ccc[nH]5)=[N+]4[B-](F)(F)n4cccc43)C2)C1 [Compound 2a]

>  <Test Readout>
inhibition at 10 µM

>  <Measured Result>
6.3

$$$$
>  <Compound>
O=C(N1CC2(CC(CC3=C4C=CC=[N+]4[B-](F)(F)n4cccc43)C2)C1)N1CC2(CC(n3cnc(C4CC4)n3)C2)C1 [Compound 5]

>  <Test Readout>
inhibition at 10 µM

>  <Measured Result>
9.9

$$$$
>  <Compound>
O=C1CO[C@H]2CCN(C(=O)N3CC4(CC(CC5=C6C=CC(c7ccc[nH]7)=[N+]6[B-](F)(F)n6cccc65)C4)C3)C[C@H]2N1 [Compound 4a]

>  <Test Readout>
inhibition at 10 µM

>  <Measured Result>
-2.7

$$$$
>  <Compound>
O=C(OC(C(F)(F)F)C(F)(F)F)N1CC2(CC(CC3=C4C=CC=[N+]4[B-](F)(F)n4cccc43)C2)C1 [Compound 2]

>  <Test Readout>
inhibition at 10 µM

>  <Measured Result>
-16.1

$$$$
>  <Compound>
O=C(O[C@H](CO)C(F)(F)F)N1CC2(CC(CC3=C4C=CC=[N+]4[B-](F)(F)n4cccc43)C2)C1 [Compound 1]

>  <Test Readout>
inhibition at 10 µM

>  <Measured Result>
4.4

$$$$

====

Measured Target: COX2(h) (Homo sapiens, UniProt P35354)
Sequence (P35354 18-604): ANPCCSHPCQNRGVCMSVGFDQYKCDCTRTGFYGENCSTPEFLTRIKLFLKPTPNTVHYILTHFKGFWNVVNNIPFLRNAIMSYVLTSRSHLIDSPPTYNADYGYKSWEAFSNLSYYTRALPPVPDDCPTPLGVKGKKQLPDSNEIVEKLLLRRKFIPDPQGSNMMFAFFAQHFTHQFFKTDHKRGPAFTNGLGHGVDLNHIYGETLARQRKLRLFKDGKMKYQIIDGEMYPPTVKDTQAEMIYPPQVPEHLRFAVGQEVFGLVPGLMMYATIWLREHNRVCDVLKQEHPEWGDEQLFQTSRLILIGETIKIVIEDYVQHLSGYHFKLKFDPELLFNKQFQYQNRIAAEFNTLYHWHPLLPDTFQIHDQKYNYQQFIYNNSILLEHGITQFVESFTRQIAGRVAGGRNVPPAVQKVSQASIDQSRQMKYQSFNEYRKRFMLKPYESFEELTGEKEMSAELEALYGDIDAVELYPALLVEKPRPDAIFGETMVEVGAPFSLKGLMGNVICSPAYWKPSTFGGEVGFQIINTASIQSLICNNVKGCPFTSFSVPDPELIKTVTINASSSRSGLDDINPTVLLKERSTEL
Assay Comment: COX2(h)
Condition Set: read-out: Inhibition COX2(h)

>  <Chemical Structure>
O=C(OC(C(F)(F)F)C(F)(F)F)N1CC2(CC(CC3=C4C=CC=[N+]4[B-](F)(F)n4cccc43)C2)C1

>  <inhibition at 10 µM / %>
31.9

$$$$
>  <Chemical Structure>
O=C1CO[C@H]2CCN(C(=O)N3CC4(CC(CC5=C6C=CC(c7ccc[nH]7)=[N+]6[B-](F)(F)n6cccc65)C4)C3)C[C@H]2N1

>  <inhibition at 10 µM / %>
48.9

$$$$
>  <Chemical Structure>
O=C(OC(C(F)(F)F)C(F)(F)F)N1CC2(CC(CC3=C4C=CC(c5ccc[nH]5)=[N+]4[B-](F)(F)n4cccc43)C2)C1

>  <inhibition at 10 µM / %>
49.5

$$$$
>  <Chemical Structure>
O=C(O[C@H](CO)C(F)(F)F)N1CC2(CC(CC3=C4C=CC=[N+]4[B-](F)(F)n4cccc43)C2)C1

>  <inhibition at 10 µM / %>
45.5

$$$$
>  <Chemical Structure>
O=C(N1CC2(CC(CC3=C4C=CC=[N+]4[B-](F)(F)n4cccc43)C2)C1)N1CC2(CC(n3cnc(C4CC4)n3)C2)C1

>  <inhibition at 10 µM / %>
23.8

$$$$
